Target: hGPR17S (Homo sapiens, UniProt Q13304)
Construct: host or cells: HEK293 cells (ATCC CRL-1573), transient transfection
Sequence (Q13304 29-367): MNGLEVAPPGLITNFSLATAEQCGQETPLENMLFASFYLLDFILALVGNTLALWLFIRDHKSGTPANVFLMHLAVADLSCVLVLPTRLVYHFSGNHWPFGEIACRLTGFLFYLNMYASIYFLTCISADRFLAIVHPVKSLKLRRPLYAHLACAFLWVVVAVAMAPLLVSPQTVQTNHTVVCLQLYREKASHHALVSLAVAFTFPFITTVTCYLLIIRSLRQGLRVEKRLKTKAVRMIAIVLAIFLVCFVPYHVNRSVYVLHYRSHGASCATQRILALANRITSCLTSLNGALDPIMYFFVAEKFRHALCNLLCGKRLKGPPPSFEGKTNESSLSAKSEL
Assay: Membrane β-arrestin recruitment in HEK293 cells transfected with hGPR17S
Type: cell-based
Details: read-out: β-arrestin Potency EC50
MEASURED QUANTITY: EC50 (µM)
Report the value in µM with no unit label.

If you can, please state the reported EC50 value of O=C(O)CCc1c(C(=O)O)[nH]c2cc(Cl)cc(Cl)c12 [MDL29,951] .
0.24

---

Biological target: hGPR17L (Homo sapiens, UniProt Q13304)
Sequence (Q13304 whole entry): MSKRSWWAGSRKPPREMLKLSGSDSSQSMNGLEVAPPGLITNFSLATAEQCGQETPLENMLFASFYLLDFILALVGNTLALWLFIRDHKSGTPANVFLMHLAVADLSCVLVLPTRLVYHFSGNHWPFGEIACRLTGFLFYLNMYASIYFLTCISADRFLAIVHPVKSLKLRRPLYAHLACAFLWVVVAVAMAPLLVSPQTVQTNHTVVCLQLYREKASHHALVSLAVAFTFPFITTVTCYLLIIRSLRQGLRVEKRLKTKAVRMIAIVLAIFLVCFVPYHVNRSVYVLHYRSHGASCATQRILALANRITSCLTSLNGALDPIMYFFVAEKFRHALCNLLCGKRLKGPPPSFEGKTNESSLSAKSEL
Assay: Calcium mobilization in HEK293 cells transfected with hGPR17L
Assay type: cell-based
Settings: read-out: Calcium Potency EC50
MEASURED QUANTITY: EC50 (nM)
Report the value in nM with no unit label.

If you can, please state the reported EC50 value of O=C(O)CCc1c(C(=O)O)[nH]c2cc(Cl)cc(Cl)c12 [MDL29,951] .
51

---

Molecular target: hGPR17L (Homo sapiens, UniProt Q13304)
Experiment: GloSensor cAMP in HEK293 cells transfected with hGPR17L
Type: cell-based
Parameters: host or cells: GLUTag cells (murine enteroendocrine line), adenoviral transduction
Settings: 3 µM forskolin-stimulated GloSensor cAMP, read-out: cAMP Potency IC50
MEASURED QUANTITY: pIC50
On this scale, pIC50 is minus log10 of a concentration expressed in M (mol/L).

If you can, please state the reported pIC50 value of O=C(O)CCc1c(C(=O)O)[nH]c2cc(Cl)cc(Cl)c12 .
8.52

---

Target: hGPR17L (Homo sapiens)
Assay: Calcium flux (Calcium 6) in GLUTag cells expressing hGPR17L
Format: cell-based
Set-up: host or cells: GLUTag cells (murine enteroendocrine line), adenoviral transduction
Details: vehicle-treated cells, Figure 2C; read-out: EC50, calcium mobilization
MEASURED QUANTITY: EC50 (nM)
Report the value in nM with no unit label.

If you can, please state the reported EC50 value of O=C(O)CCc1c(C(=O)O)[nH]c2cc(Cl)cc(Cl)c12 [MDL29,951] .
440

---

Biological target: mGPR17 (Mus musculus)
Sequence (Q6NS65 whole entry): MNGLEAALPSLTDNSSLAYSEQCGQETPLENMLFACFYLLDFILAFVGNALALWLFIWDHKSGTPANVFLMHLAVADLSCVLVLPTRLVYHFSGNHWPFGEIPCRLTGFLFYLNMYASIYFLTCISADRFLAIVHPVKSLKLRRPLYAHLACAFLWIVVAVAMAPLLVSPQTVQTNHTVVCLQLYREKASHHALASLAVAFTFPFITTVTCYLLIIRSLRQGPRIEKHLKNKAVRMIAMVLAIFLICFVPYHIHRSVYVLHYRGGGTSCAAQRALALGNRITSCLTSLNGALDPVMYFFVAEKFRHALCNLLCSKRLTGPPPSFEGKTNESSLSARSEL
Test: GloSensor cAMP in HEK293 cells transfected with mGPR17
Conditions: 3 µM forskolin-stimulated GloSensor cAMP, read-out: cAMP Potency IC50
MEASURED QUANTITY: pIC50
On this scale, pIC50 is minus log10 of a concentration expressed in M (mol/L).

Request: pIC50, test system mGPR17 (Mus musculus), entry O=C(O)CCc1c(C(=O)O)[nH]c2cc(Cl)cc(Cl)c12 [MDL29,951]
8.48
